Data origin, for the record: patent US20190241662A1

Molecular target: T1, full-length human CTLA4 expressed on cells (human, UniProt P16410 36-223)
T1 construct: whole, on cells; also called HEK293F/hCTLA-4 cells; HEK293F/hCTLA4 cells
T1 sequence (looked up): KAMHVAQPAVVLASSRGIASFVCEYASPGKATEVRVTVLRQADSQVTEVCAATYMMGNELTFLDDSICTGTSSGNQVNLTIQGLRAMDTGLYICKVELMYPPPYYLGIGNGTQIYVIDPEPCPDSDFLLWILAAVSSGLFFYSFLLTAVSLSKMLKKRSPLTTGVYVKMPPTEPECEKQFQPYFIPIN
Assay: flow cytometry blocking: HEK293F cells with human CTLA4, 100 nM antibody, then 100 nM CD80-Fc-Bio (blocked ligand); PBSA panel: Mean 157692, 26.3%
assay metric: % of cells in upper right quadrant (CD80-positive) in the presence of the antibody (%)
Numbers only here, please. The scale is %.

Record TY21591 (antibody, V domains shown, human IgG1 (hIgG1) from Fab hit B15756) VH: EVQLVESGGGLVQPGGSLRLSCAASGFSLSTGGVAVSWIRQAPGKGLEWIGEIYHSGSTYYSPSLKSRVTISRDNSKNTLYLQLNSLRAEDTAVYYCARRIATATYFDYWGQGTLVTVSS VL: DIQLTQSPSSLSASVGDRVTITCRASQTVFSRYLAWYQQKPGKAPKLLIYDASNRATGIPSRFSGSGSGTDFTLTISSLQPEDFATYYCQQSYYWPPWTFGQGTKVEIK . Reported % of cells in upper right quadrant (CD80-positive) in the presence of the antibody: 24.9
